- test_system: folate receptor (Homo sapiens, UniProt P15328)
- Construct: endogenous in cells
- Sequence (P15328 25-234): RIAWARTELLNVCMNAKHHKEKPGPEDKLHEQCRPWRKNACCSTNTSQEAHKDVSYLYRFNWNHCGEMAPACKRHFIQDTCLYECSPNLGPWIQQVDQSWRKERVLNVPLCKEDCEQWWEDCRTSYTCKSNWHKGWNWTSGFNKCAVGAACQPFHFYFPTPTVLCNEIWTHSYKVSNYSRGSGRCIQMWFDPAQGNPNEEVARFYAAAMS
- assay_method_text: In vitro binding affinity assay, displacement of 3H-folic acid on KB cells
- measurement_parameters: 3H-folic acid 0.82 nM, 4° C., 30 min
test_readout: Ki (pM)

compound	readout_unit	Ki
Nc1nc2ncc(CNc3ccc(C(=O)NC(CCC(=O)O)C(=O)NC(Cc4cn(C5OC(CO)C(O)C(O)C5F)nn4)C(=O)O)cc3)nc2c(=O)[nH]1 (stereo not drawn) [α-glucose folate, α-[^19F]-Glucose Folate]	pM	700
Nc1nc2ncc(CNc3ccc(C(=O)NC(CCC(=O)NC(Cc4cn(C5OC(CO)C(O)C(O)C5F)nn4)C(=O)O)C(=O)O)cc3)nc2c(=O)[nH]1 (centres unmarked) [γ-glucose folate, γ-[^19F]-Glucose Folate]	pM	800
